System: ANGPTL3 Protein
method_notes: PCH free uptake, inhibition of ANGPTL3, ELISA of supernatant
Type: cell-based
condition_label: 5nM, primary cynomolgus monkey hepatocytes, 72 hours
result_type: Average Inhibition in PCH % (%)

substance	measurement_target	unit_info	result_value
2008-019-002: GalNAc-conjugated modified ANGPTL3 siRNA, sense SEQ ID NO 36, antisense SEQ ID NO 28 (sense GAGAAGAACUACAUAUAAA; antisense UUUAUAUGUAGUUCUUCUCAG; GalNAc conjugated, chemically modified, pattern not given here) [Duplex 2008-019-002]	ANGPTL3 Protein	%	70.28

---

Item-by-item account of Average Inhibition in PCH %
Test system: ANGPTL3 Protein
method_notes: PCH free uptake, inhibition of ANGPTL3, ELISA of supernatant
Assay type: cell-based
condition_label: 25nM, primary cynomolgus monkey hepatocytes, 72 hours

substance	unit_info	Average Inhibition in PCH %
ARO-05488-003-NAG37: GalNAc-conjugated comparator ANGPTL3 siRNA, sense SEQ ID NO 44, antisense SEQ ID NO 45 (sense GCUCAACAUAUUUGAUCAGUA; antisense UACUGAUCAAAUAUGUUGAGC; GalNAc (NAG37) conjugate, chemistry not fully specified) [reference compound]	%	60.00
2008-019-002: GalNAc-conjugated modified ANGPTL3 siRNA, sense SEQ ID NO 36, antisense SEQ ID NO 28 (sense GAGAAGAACUACAUAUAAA; antisense UUUAUAUGUAGUUCUUCUCAG; GalNAc conjugated, chemically modified, pattern not given here) [Duplex 2008-019-002]	%	73.74
2002-034-002: GalNAc-conjugated modified ANGPTL3 siRNA, sense SEQ ID NO 33, antisense SEQ ID NO 13 (sense CAUAGUGAAGCAAUCUAAU; antisense AUUAGAUUGCUUCACUAUGGA; GalNAc conjugated, chemically modified, pattern not given here) [Duplex 2002-034-002]	%	63.01

---

Tested on: ANGPTL3 Protein
method_notes: PCH free uptake, inhibition of ANGPTL3, ELISA of supernatant
Type: cell-based
condition_label: 25nM, primary cynomolgus monkey hepatocytes, 72 hours
Quick list: Average Inhibition in PCH % per entry.

substance	Average Inhibition in PCH %, %
2008-019-001: GalNAc-conjugated modified ANGPTL3 siRNA, sense SEQ ID NO 41, antisense SEQ ID NO 28 (sense GAGAAGAACUACAUAUAAA; antisense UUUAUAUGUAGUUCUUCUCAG; GalNAc conjugated, chemically modified, pattern not given here) [Duplex 2008-019-001]	75.51
2002-033-001: GalNAc-conjugated modified ANGPTL3 siRNA, sense SEQ ID NO 38, antisense SEQ ID NO 12 (sense CAUAGUGAAGCAAUCUAAU; antisense AUUAGAUUGCUUCACUAUGGA; GalNAc conjugated, chemically modified, pattern not given here) [Duplex 2002-033-001]	68.80
2008-018-001: GalNAc-conjugated modified ANGPTL3 siRNA, sense SEQ ID NO 41, antisense SEQ ID NO 27 (sense GAGAAGAACUACAUAUAAA; antisense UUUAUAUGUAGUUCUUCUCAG; GalNAc conjugated, chemically modified, pattern not given here) [Duplex 2008-018-001]	76.55
2008-010-001: GalNAc-conjugated modified ANGPTL3 siRNA, sense SEQ ID NO 40 (3'-YHZY12001), antisense SEQ ID NO 27 (sense GAGAAGAACUACAUAUAAA; antisense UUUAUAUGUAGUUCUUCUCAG; GalNAc conjugate YHZY12001 at sense 3', chemistry not fully specified) [Duplex 2008-010-001]	78.39
2008-011-002: GalNAc-conjugated modified ANGPTL3 siRNA, sense SEQ ID NO 35, antisense SEQ ID NO 28 (sense GAGAAGAACUACAUAUAAA; antisense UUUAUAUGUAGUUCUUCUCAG; GalNAc conjugated, chemically modified, pattern not given here) [Duplex 2008-011-002]	76.57
